Target: purified recombinant HIV-1 reverse transcriptase (Human immunodeficiency virus type 1 group M subtype B)
Construct: purified recombinant HIV-1 reverse transcriptase (RT, EC, 2.7.7.49)
Assay: Inhibition of HIV-1 reverse transcriptase enzyme
Test Readout: IC50 (nM)
Number in nM, nothing else.

Any idea what IC50 was measured for Cc1c(Oc2cc(C#N)cc(C#N)c2)c(C2CC2)nn1CCO [Example 1] ? 295

----------
Assay: Metabolism in human liver microsomes
Type: in vitro ADME
Conditions: pH 7.4, human microsomes 0.5 μM cytochrome P450, substrate 1 μM, 37° C., 1 hour, read-out: t 1/2 (human microsomal)
Test Readout: half-life at 1 μM

Any idea what half-life at 1 μM was measured for Cc1c(Oc2cc(C#N)cc(C#N)c2)c(C2CC2)nn1CCO [Example 1] ? > 2 h
